testDetails: yeast display, Sf9 membrane polyspecificity reagent, FACS + sequencing; frameworks hold sequencing errors
attributeMeasured: polyreactivity (PSR sort gate)

Examples with answers:
INSERT INTO assay_data (biosequence, attributemeasured, assayvalue) VALUES
  ('QVQLVESGGGLVQAGGSLLLSCAASGSTFNDNAMGWYRQAPGKERELVAAIDSGGITNYADSVKGRFTISRDNAKNTVYLQMNSLKPEDTAVYYCAVEGEYLTPSGRYRLDYWGQGTEVTVSS', 'polyreactivity (PSR sort gate)', 'low polyreactivity'),
  ('QVQLVESGGGLVQAGGSLRLSCAASGGTFVYYAMGWYRQAPGKERELVAAISGSGGRTYYADSVKGRFTISRDNAKNTVYLQMNSLKPEDTAVYFCAAVHLNRYWGQGTQVTVSS', 'polyreactivity (PSR sort gate)', 'high polyreactivity'),
  ('QVQLVESGGGLVQAGGSLRLSCAASGRIFASNAMGWYRQAPGKERELVAGISRNGGSTFYADSVKGRFTISRDNAKNTVYLQMNSLKPEDTAVYYCARYYTHSGGYRDRIYYYWGQGTQVTVSS', 'polyreactivity (PSR sort gate)', 'low polyreactivity'),
  ('QVQLVESGGGLVQAGGSLRLSCAASGRIFYFYALGWYRQAPGKERELVAAIDSGGSTYYADSVKGRFTISRDNAKNTVYLQMNSLKPEDTAVYYCNADGFYSWLYDYWGQGTQVTVSS', 'polyreactivity (PSR sort gate)', 'low polyreactivity'),
  ('QVQLVESGGGLVQAGGSLRLSCAASGRIFKNYAMGWYRQAPGKERELVAGITRTGGSTYYADSVKGRFTISRDNAKNTVYLQMNSLKPEDTAVYYCAARPARKLVYWVQGTQVTVSS', 'polyreactivity (PSR sort gate)', 'high polyreactivity'),
  ('QVHLVESGGGLVQAGGSLRLSCAASGRIYAFYAMGWYRQAPGKERELVAAISSGGNTKYADSVKGRFTISRDNAKNTVYLQMNSLKPEYTAVFYCDARTPWYNKGDYWGLGTQVTVSS', 'polyreactivity (PSR sort gate)', 'low polyreactivity');

Batch request: polyreactivity (PSR sort gate) for each of the following sequences.
1. QVQLVESGGGLVQAGGSLRLSCAASGRTFYWYAMGWYRQAPGKERELVAAITSGGSTNYADSVKGRFTISRDNAKNTVYLQMNSLKPEDTAVYYCAARRSVRRGGDYYWGQGTQVTVSS
2. QVQLVESGGGLVQAGGSLRLTCAASGRILLVNAMGWSRQAPGKERELVAAITSGGSTNYADSVKGRFTISRDNAKNTVYFQMNSLKPEDTAVYFCAATITLYRSRGRYGYWGQGTQVTASS

Result:
1: high polyreactivity; 2: high polyreactivity
